# target-system: Protein cereblon/Interleukin-1 receptor-associated kinase 4 (Homo sapiens, UniProt Q9NWZ3+Q96SW2)
# Sequence (Q96SW2 whole entry, looked up): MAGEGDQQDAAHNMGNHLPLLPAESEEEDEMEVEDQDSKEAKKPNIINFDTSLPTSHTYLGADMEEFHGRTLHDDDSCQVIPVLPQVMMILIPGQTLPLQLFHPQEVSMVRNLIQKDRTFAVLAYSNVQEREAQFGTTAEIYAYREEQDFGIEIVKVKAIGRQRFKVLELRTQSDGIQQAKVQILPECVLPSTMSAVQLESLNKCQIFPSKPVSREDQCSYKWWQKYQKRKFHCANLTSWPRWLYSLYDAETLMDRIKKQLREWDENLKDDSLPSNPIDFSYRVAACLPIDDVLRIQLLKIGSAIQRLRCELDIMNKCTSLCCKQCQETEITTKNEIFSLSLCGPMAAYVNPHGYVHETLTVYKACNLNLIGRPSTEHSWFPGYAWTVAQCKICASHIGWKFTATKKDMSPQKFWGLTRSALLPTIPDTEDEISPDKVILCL
# Sequence (Q9NWZ3 whole entry, looked up): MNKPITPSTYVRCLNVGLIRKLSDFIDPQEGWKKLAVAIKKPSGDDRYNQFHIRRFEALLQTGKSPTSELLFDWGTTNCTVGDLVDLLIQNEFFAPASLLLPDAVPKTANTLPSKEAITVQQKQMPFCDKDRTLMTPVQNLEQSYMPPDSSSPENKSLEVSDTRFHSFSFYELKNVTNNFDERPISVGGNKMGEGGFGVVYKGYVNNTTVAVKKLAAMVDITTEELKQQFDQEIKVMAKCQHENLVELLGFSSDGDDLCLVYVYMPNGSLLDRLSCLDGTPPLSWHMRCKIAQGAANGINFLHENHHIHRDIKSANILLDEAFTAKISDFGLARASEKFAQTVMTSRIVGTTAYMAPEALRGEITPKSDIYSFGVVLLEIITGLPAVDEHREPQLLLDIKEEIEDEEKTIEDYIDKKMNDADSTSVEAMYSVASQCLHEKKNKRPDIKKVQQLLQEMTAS
# procedure-summary: PROTAC activity at CRBN/IRAK4 in human THP-1 cells assessed as induction of IRAK4 degradation incubated for 24 hrs by HiBiT lytic reagent based analysis relative to control
# Assay type: cell-based
readout-label: Emax (%)
Give bare numbers, in %.

Example compounds with recorded Emax:
>  <compound>
Cn1c(=O)n(C2CCC(=O)NC2=O)c2cccc(C#CCO[C@H]3CC[C@@H](CN4CCC5(Cc6cc(NC(=O)c7cnn8cccnc78)c(N7CCC(CO)CC7)cc6O5)C4)CC3)c21 (stereo not given in full)

>  <test-value>
90

$$$$
>  <compound>
Cc1cc(-c2nc(C(=O)Nc3cc4c(cc3N3CCC(CO)CC3)OC3(CCN(C[C@H]5CC[C@H](OCC#Cc6cccc7c6n(C)c(=O)n7C6CCC(=O)NC6=O)CC5)CC3)C4)co2)ccn1 (stereo not given in full)

>  <test-value>
85

$$$$
>  <compound>
Cc1cnc2c(C(=O)Nc3cc4c(cc3N3CCC(CO)CC3)OC3(CCN(C[C@H]5CC[C@H](OCC#Cc6cccc7c6n(C)c(=O)n7C6CCC(=O)NC6=O)CC5)CC3)C4)cnn2c1 (stereo not given in full)

>  <test-value>
87

$$$$

Go through the items and report each one's Emax.
1. Cn1c(=O)n(C2CCC(=O)NC2=O)c2cccc(C#CCO[C@H]3CC[C@H](CN4CCC5(CC4)Cc4cc(NC(=O)c6cnn7cc(F)cnc67)c(N6CCC(CO)CC6)cc4O5)CC3)c21 (stereo not given in full)
2. Cn1c(=O)n(C2CCC(=O)NC2=O)c2cccc(C#CCO[C@H]3CC[C@H](CN4CCC5(CC4)Oc4cc(N6CCC(CO)CC6)c(NC(=O)c6cnn7cccnc67)cc4C5=O)CC3)c21 (stereo not given in full)

Ans:
1: 87; 2: 20

----------
# procedure-summary: Metabolic stability dog hepatocyte assessed as half life at 1 uM measured up to 120 mins by LC-MS/MS analysis
# Assay type: ADME, cell-based, Canis lupus familiaris
# recorded-conditions: hepatocytes
readout-label: half-life at 1 µM

Q: Give a short answer stating reported half-life at 1 µM for Cn1c(=O)n(C2CCC(=O)NC2=O)c2cccc(C#CCO[C@H]3CC[C@H](CN4CCC5(CC4)Cc4cc(NC(=O)c6coc7cccnc67)c(N6CCC(CO)CC6)cc4O5)CC3)c21 (stereo partly specified) .
Ans: > 6.18 h

----------
# procedure-summary: Metabolic stability in rat liver microsome assessed as half life at 1 uM measured up to 60 mins in presence of NADPH by LC-MS/MS analysis
# Format: ADME
# recorded-conditions: liver microsomes
readout-label: half-life at 1 µM

>  <molecule>
Cn1c(=O)n(C2CCC(=O)NC2=O)c2cccc(C#CCO[C@H]3CC[C@H](CN4CCC5(CC4)Cc4cc(NC(=O)c6cnn7cccnc67)c(N6CCC(CO)CC6)cc4O5)CC3)c21 (some centres undefined)

>  <half-life at 1 µM>
> 3.07 h

$$$$
>  <molecule>
Cn1c(=O)n(C2CCC(=O)NC2=O)c2cccc(C#CCO[C@H]3CC[C@H](CN4CCC5(CC4)Cc4cc(NC(=O)c6cnn7cc(C#N)cnc67)c(N6CCC(CO)CC6)cc4O5)CC3)c21 (some centres undefined)

>  <half-life at 1 µM>
2.45 h

$$$$
>  <molecule>
Cn1c(=O)n(C2CCC(=O)NC2=O)c2cccc(C#CCO[C@H]3CC[C@H](CN4CCC5(CC4)Cc4cc(NC(=O)c6coc7cccnc67)c(N6CCC(CO)CC6)cc4O5)CC3)c21 (some centres undefined)

>  <half-life at 1 µM>
> 3.07 h

$$$$

Q: Give a short answer stating reported half-life at 1 µM for Cn1c(=O)n(C2CCC(=O)NC2=O)c2cccc(C#CCO[C@H]3CC[C@H](CN4CCC5(CC4)Cc4cc(NC(=O)c6cnn7cc(CO)cnc67)c(N6CCC(CO)CC6)cc4O5)CC3)c21 (some centres undefined) .
Ans: > 3.07 h
